Overview of reported IC50 across a group of molecules:
- Study target: ALK (baculovirus expressed human ALK kinase domain F1098-K1410) (Homo sapiens)
- Construct: human ALK kinase domain F1098-K1410; made in house
- Test protocol: biochemical
- Assay context: 1 μM ATP, 4 μM poly-AEKY, 12 nM ALK, 2 hours at ambient temperature; read-out: ALK IC50

1. O=C(NCCc1cccc(Cl)c1)c1csc(CNCc2ccc(OC(F)(F)F)cc2)n1	> 2000 nM
2. C[C@@H]1[C@@H](NC(=O)c2coc(CNC(=O)COc3ccc(OC(F)(F)F)cc3)n2)C[C@H]2C[C@@H]1C2(C)C	50 to 500 nM
3. O=C(COc1ccc(OC(F)(F)F)cc1)NCc1nc(C(=O)NCCc2ccccn2)co1	500 to 2000 nM

Consider the record given below.
Using known records, supply IC50 for O=C(COc1ccc(OC(F)(F)F)cc1)NCc1nc(C(=O)O)co1
> 2000 nM

---

- Study target: ALK (baculovirus expressed human ALK kinase domain F1098-K1410) (Homo sapiens)
- Construct: human ALK kinase domain F1098-K1410; made in house
- Test protocol: biochemical
- Assay context: 1 μM ATP, 4 μM poly-AEKY, 12 nM ALK, 2 hours at ambient temperature; read-out: ALK IC50
Some molecules, each annotated with its measured IC50.

# example entries with known answers
1. COc1cc(CNC(=O)c2csc(CNC(=O)COc3ccc(OC(F)(F)F)cc3)n2)cc(OC)c1 [Entry 121]	50 to 500 nM
2. O=C(COc1ccc(OC(F)(F)F)cc1)NCc1nc(C(=O)NCc2ccc(F)cc2F)cs1 [Entry 258]	500 to 2000 nM
3. O=C(COc1ccc(OC(F)(F)F)cc1)NCc1nc(C(=O)NCCc2ccccc2Cl)co1 [Entry 273]	500 to 2000 nM
4. CSc1ccc(NC(=O)NCc2nc(C(=O)NCCc3cccc(Cl)c3)cs2)cc1 [Entry 173]	50 to 500 nM

Please report IC50 for the following molecule: CC(C)[C@H](C)NC(=O)c1csc(CNC(=O)COc2ccc(OC(F)(F)F)cc2)n1 [Entry 153]
50 to 500 nM

Find the measured IC50 of O=C(COc1ccc(Cl)cc1)NCc1nc(C(=O)NCCc2ccccc2F)cs1 [Entry 215] and report it.
50 to 500 nM

For the molecule COCCNC(=O)c1csc(CNC(=O)COc2ccc(OC(F)(F)F)cc2)n1 [Entry 287] , give its reported IC50.
500 to 2000 nM

Please look at this molecule and report its IC50: O=C(COc1ccc(OC(F)(F)F)cc1)NCc1nc(C(=O)NCCc2cccc(Cl)c2)c[nH]1 [Entry 306]
> 2000 nM

Please indicate IC50 recorded for O=C(COc1ccc(OC(F)(F)F)cc1)NCc1nc(C(=O)NCc2cccs2)cs1 [Entry 164]
50 to 500 nM

Give the value of IC50 reported for the following: COc1cccc(CNC(=O)c2coc(CNC(=O)COc3ccc(OC(F)(F)F)cc3)n2)c1OC [Entry 223]
500 to 2000 nM

For the molecule O=C(COc1ccc(OC(F)(F)F)cc1)NCc1nc(C(=O)NCc2ccc(F)cc2)co1 [Entry 292] , give its reported IC50.
500 to 2000 nM

Assign IC50 to the following record: COc1ccc([C@H](C)NC(=O)c2csc(CNC(=O)COc3ccc(OC(F)(F)F)cc3)n2)cc1 [Entry 183]
50 to 500 nM

Read the entry Cc1cccc(CCNC(=O)c2coc(CNC(=O)COc3ccc(OC(F)(F)F)cc3)n2)c1 [Entry 151] and write its reported IC50.
50 to 500 nM

---

- Study target: ALK (baculovirus expressed human ALK kinase domain F1098-K1410) (Homo sapiens)
- Construct: human ALK kinase domain F1098-K1410; made in house
- Test protocol: biochemical
- Assay context: 1 μM ATP, 4 μM poly-AEKY, 12 nM ALK, 2 hours at ambient temperature; read-out: ALK IC50
Readout label: IC50

Some compounds with recorded IC50:
1) CCC(NC(=O)c1csc(CNC(=O)COc2ccc(OC(F)(F)F)cc2)n1)c1ccccc1 (stereo not shown) [Entry 65]	50 to 500 nM
2) CCCOCCCNC(=O)c1csc(CNC(=O)COc2ccc(OC(F)(F)F)cc2)n1 [Entry 74]	50 to 500 nM
3) COc1ccccc1CNC(=O)c1csc(CNC(=O)c2cccnc2Oc2ccc(Cl)cc2)n1 [Entry 198]	50 to 500 nM

Now for a further compound.
Answer with the recorded IC50 of O=C(COc1ccc(OC(F)(F)F)cc1)NCc1nc(C(=O)NCc2ccc(F)cc2C(F)(F)F)cs1 [Entry 244] only.
500 to 2000 nM

---

- Study target: ALK (baculovirus expressed human ALK kinase domain F1098-K1410) (Homo sapiens)
- Construct: human ALK kinase domain F1098-K1410; made in house
- Test protocol: biochemical
- Assay context: 1 μM ATP, 4 μM poly-AEKY, 12 nM ALK, 2 hours at ambient temperature; read-out: ALK IC50
Readout label: IC50

The cases that follow already have their IC50 on record.
1) CCc1ccc(NC(=O)NCc2nc(C(=O)NCc3cccc(OC)c3OC)cs2)cc1 [Entry 134]	50 to 500 nM
2) CC(C)CCNC(=O)c1csc(CNC(=O)COc2ccc(OC(F)(F)F)cc2)n1 [Entry 138]	50 to 500 nM
3) COc1ccccc1CNC(=O)c1csc(CNC(=O)Cc2ccc3ccccc3c2)n1 [Entry 229]	500 to 2000 nM

In the following, a different compound is considered.
Tell me measured IC50 for Cc1ccc(Cl)cc1CNC(=O)c1csc(CNC(=O)COc2ccc(OC(F)(F)F)cc2)n1 [Entry 39] please.
50 to 500 nM

---

- Study target: ALK (baculovirus expressed human ALK kinase domain F1098-K1410) (Homo sapiens, UniProt Q9UM73)
- Construct: human ALK kinase domain F1098-K1410; made in house
- Sequence (Q9UM73 1098-1410): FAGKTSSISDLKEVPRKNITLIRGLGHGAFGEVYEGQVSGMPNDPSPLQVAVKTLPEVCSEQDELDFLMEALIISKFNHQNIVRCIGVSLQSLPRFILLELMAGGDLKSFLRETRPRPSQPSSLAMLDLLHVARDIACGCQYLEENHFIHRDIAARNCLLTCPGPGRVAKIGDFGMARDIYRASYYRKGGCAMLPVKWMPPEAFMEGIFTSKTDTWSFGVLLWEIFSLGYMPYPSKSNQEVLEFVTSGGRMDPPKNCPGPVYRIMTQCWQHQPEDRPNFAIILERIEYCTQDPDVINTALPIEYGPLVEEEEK
- Test protocol: biochemical
- Assay context: 1 μM ATP, 4 μM poly-AEKY, 12 nM ALK, 2 hours at ambient temperature; read-out: ALK IC50
pIC50: −log10 of the molar value.
Measured pIC50, listed per entry.

Here are 6 compounds together with their reported answers.
1) O=C(COc1ccc(OC(F)(F)F)cc1)NCc1nc(C(=O)NC(Cc2ccccc2)c2ccccc2)cs1 (stereo not shown)	5.70 to 6.30
2) O=C(COc1ccc(OC(F)(F)F)cc1)NCc1nc(C(=O)NCCc2cccc(Cl)c2)cs1	> 7.30
3) O=C(COc1ccc(OC(F)(F)F)cc1)NCc1nc(C(=O)NCc2ccccc2)cs1	6.30 to 7.30
4) O=C(COc1ccc(OC(F)(F)F)cc1)NCc1nc(C(=O)NCC2c3ccccc3CCc3ccccc32)co1	6.30 to 7.30
5) CC(C)(C)OC(=O)NCCCCCNC(=O)c1csc(CNC(=O)COc2ccc(OC(F)(F)F)cc2)n1	6.30 to 7.30
6) CC1CC(C)CN(C(=O)c2csc(CNC(=O)COc3ccc(OC(F)(F)F)cc3)n2)C1 (stereo not shown)	5.70 to 6.30

# return recorded pIC50 for input O=C(COc1ccc(OC(F)(F)F)cc1)NCc1nc(C(=O)NC2CCCc3ccccc32)co1 (stereo not shown)
5.70 to 6.30

Read the entry O=C(COc1ccc(OC(F)(F)F)cc1)NCc1nc(C(=O)N2CCc3c([nH]c4ccccc34)C2)cs1 and write its reported pIC50.
6.30 to 7.30

Name the recorded pIC50 of the item O=C(COc1ccc(OC(F)(F)F)cc1)NCc1nc(C(=O)NCCc2cccc(C(F)(F)F)c2)co1 in your answer.
6.30 to 7.30

Tell me its pIC50 given Cc1ccc(F)cc1CNC(=O)c1csc(CNC(=O)COc2ccc(OC(F)(F)F)cc2)n1 as the entry.
6.30 to 7.30

---

Each record here notes measured IC50.
- Study target: ALK (baculovirus expressed human ALK kinase domain F1098-K1410) (Homo sapiens, UniProt Q9UM73)
- Construct: human ALK kinase domain F1098-K1410; made in house
- Test protocol: biochemical
- Assay context: 1 μM ATP, 4 μM poly-AEKY, 12 nM ALK, 2 hours at ambient temperature; read-out: ALK IC50

1. Cc1ccc(N2CCN(C(=O)c3csc(CNC(=O)COc4ccc(OC(F)(F)F)cc4)n3)CC2C)cc1 (centres unmarked)	500 to 2000 nM

Respond only with IC50 recorded for CCOc1ccc(NC(=O)NCc2nc(C(=O)NCCc3cccc(Cl)c3)cs2)cc1
50 to 500 nM

State, in one line, measured IC50 of O=C(COc1ccc(OC(F)(F)F)cc1)NCc1nc(C(=O)NCCc2cccc(C(F)(F)F)c2)cs1
50 to 500 nM

Fill in reported IC50 for this entry: COc1ccccc1CNC(=O)c1csc(CNC(=O)COc2ccc(I)cc2)n1
50 to 500 nM

Find the measured IC50 of O=C(COc1ccc(OC(F)(F)F)cc1)NCc1nc(C(=O)NCc2ccccc2OC(F)F)cs1 and report it.
50 to 500 nM

Specify reported IC50 for the molecule shown: CCCCCCC(C)NC(=O)c1csc(CNC(=O)COc2ccc(OC(F)(F)F)cc2)n1 (centres unmarked)
500 to 2000 nM

Report IC50, nothing else, for this molecule: Cc1ccc(CCNC(=O)c2coc(CNC(=O)COc3ccc(OC(F)(F)F)cc3)n2)cc1C
50 to 500 nM

Query IC50 for CCOc1ccccc1CNC(=O)c1csc(CNC(=O)COc2ccc(OC(F)(F)F)cc2)n1
50 to 500 nM

Sourced from patent US7973061B2
